Listed compounds paired with reported % of radioligand specific binding at 3 μM, mean
target: μ-opioid receptor (MOR) (Rattus norvegicus, UniProt P33535); assay: biochemical; details: initial screening, 3 μM
Sequence (P33535 whole entry): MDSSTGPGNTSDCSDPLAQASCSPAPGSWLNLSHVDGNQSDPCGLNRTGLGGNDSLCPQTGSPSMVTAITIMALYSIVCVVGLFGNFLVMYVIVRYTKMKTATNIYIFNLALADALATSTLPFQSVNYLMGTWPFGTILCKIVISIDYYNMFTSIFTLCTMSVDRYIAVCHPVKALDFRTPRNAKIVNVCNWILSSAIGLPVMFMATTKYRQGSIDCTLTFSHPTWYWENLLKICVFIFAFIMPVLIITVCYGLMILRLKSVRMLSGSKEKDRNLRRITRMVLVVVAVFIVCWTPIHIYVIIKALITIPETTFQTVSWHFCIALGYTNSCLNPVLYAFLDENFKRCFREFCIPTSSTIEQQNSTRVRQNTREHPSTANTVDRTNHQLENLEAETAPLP
measureName: % of radioligand specific binding at 3 μM, mean (%)

[
  {
    "compound": "CC(C)C[C@H](NC(=O)[C@@H]1Cc2ccc(cc2)-c2ccc(cc2)C[C@H](N)C(=O)NCC(=O)NCC(=O)N1)C(N)=O [c-(Phe-p-Phe-p)-L-NH2, H-(cyclo-p,p)-[Phe-Gly-Gly-Phe]-Leu-NH2]",
    "systemUnderTest": "μ-opioid receptor (MOR) (Rattus norvegicus, UniProt P33535)",
    "measValue": 110
  },
  {
    "compound": "CC(C)C[C@H](NC(=O)[C@@H]1Cc2cccc(c2)-c2cc(ccc2O)C[C@H](N)C(=O)NCC(=O)NCC(=O)N1)C(N)=O [c-(Tyr-m-Phe-m)-L-NH2, H-(cyclo-m,m)-[Tyr-Gly-Gly-Phe]-Leu-NH2]",
    "systemUnderTest": "μ-opioid receptor (MOR) (Rattus norvegicus, UniProt P33535)",
    "measValue": 64
  },
  {
    "compound": "CC(C)C[C@H](NC(=O)[C@@H]1Cc2ccc(O)c(c2)-c2cc(ccc2O)C[C@H](N)C(=O)NCC(=O)NCC(=O)N1)C(N)=O [c-(Tyr-m-Tyr-m)-L-NH2, H-(cyclo-m,m)-[Tyr-Gly-Gly-Tyr]-Leu-NH2]",
    "systemUnderTest": "μ-opioid receptor (MOR) (Rattus norvegicus, UniProt P33535)",
    "measValue": 87
  },
  {
    "compound": "CC(C)C[C@H](NC(=O)[C@@H]1Cc2ccc(cc2)-c2cc(ccc2O)C[C@H](N)C(=O)NCC(=O)NCC(=O)N1)C(N)=O [c-(Tyr-m-Phe-p)-L-NH2, H-(cyclo-m,p)-[Tyr-Gly-Gly-Phe]-Leu-NH2]",
    "systemUnderTest": "μ-opioid receptor (MOR) (Rattus norvegicus, UniProt P33535)",
    "measValue": 99
  },
  {
    "compound": "CSCC[C@H](NC(=O)[C@@H]1Cc2ccc(cc2)-c2cc(ccc2O)C[C@H](N)C(=O)NCC(=O)NCC(=O)N1)C(N)=O [c-(Tyr-m-Phe-p)-M-NH2, H-(cyclo-m,p)-[Tyr-Gly-Gly-Phe]-Met-NH2]",
    "systemUnderTest": "μ-opioid receptor (MOR) (Rattus norvegicus, UniProt P33535)",
    "measValue": 49
  }
]
